System Tested: NMDA receptor composed of four subunits including 2 sets of heterodimers of NR1 and NR2B (Homo sapiens, UniProt Q13224)
Construct: host or cells: HEK293 (tetracycline-induced expression)
Sequence (Q13224 27-1484, other chains not shown): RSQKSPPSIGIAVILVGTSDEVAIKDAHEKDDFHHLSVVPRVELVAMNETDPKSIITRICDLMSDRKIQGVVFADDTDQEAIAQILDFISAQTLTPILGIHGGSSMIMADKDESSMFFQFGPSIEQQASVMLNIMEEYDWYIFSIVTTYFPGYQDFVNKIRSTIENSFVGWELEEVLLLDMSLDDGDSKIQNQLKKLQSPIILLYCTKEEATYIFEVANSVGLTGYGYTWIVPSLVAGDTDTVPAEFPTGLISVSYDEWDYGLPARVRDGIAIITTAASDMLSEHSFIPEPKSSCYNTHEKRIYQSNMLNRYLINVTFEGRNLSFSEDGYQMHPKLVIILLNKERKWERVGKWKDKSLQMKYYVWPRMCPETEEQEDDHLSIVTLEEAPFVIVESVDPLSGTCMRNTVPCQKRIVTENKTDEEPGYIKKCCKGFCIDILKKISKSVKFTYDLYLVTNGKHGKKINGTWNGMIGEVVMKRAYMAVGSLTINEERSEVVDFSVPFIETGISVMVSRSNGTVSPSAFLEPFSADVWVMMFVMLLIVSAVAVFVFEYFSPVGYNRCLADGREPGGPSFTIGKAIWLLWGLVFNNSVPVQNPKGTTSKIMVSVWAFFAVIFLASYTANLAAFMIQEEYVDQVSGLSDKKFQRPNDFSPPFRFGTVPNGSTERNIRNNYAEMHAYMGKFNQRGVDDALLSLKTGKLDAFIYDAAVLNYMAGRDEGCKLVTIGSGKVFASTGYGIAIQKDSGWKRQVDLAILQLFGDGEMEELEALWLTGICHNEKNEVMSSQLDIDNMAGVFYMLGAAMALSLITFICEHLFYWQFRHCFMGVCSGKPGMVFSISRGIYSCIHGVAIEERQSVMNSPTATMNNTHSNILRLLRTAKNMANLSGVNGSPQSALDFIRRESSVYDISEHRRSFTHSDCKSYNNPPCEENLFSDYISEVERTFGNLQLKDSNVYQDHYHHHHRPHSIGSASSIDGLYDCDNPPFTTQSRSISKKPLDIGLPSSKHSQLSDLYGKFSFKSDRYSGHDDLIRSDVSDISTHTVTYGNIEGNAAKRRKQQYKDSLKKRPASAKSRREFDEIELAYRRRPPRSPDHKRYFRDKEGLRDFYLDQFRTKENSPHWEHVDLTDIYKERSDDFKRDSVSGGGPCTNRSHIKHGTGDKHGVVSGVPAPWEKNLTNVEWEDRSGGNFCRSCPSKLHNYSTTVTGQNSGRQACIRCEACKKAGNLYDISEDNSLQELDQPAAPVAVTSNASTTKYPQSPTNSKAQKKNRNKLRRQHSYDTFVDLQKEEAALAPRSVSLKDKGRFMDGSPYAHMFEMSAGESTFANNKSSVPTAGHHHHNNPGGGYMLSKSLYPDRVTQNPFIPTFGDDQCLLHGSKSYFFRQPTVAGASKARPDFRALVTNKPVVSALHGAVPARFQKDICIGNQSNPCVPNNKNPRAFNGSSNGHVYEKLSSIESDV
Run Description: NR2B Ca2+ influx assay (FLIPR, Fluo-4) in HEK293 cells expressing human GRIN1 and GRIN2B
Format: cell-based
Measurement Parameters: HEK293, 10 μM final compound concentration, glutamic acid/glycine-induced Ca2+ influx, read-out: inhibitory rate (10 μM compound concentration)
Measured Metric: inhibition at 10 µM (%)
Express it in %; write the number only.

Example results:
COc1ccc2ncn(C)c2c1CNC(=O)c1cnc(OC)c(Cl)c1: 91
Cc1ccc(C(=O)NCc2c(C3CC3)ccc3[nH]ncc23)cc1C(F)(F)F: 91

Enquiry: Quickly give me recorded inhibition at 10 µM for COc1ncc(C(=O)NCc2c(C3CC3)ccc3ncn(C)c23)cc1F
Return: 90

Enquiry: Report measured inhibition at 10 µM; entry is O=C(NCc1c(C2CC2)ccc2[nH]ncc12)c1ccc(C(F)(F)F)c(Cl)c1
Return: 91

Enquiry: Given the compound Cc1ccc2ncn(C)c2c1CNC(=O)c1ccc(OC(F)F)c(F)c1 , write its reported inhibition at 10 µM.
Return: 92

Enquiry: Return inhibition at 10 µM (reported value) for this compound: COc1ccc2ncn(C)c2c1CNC(=O)c1ccc(F)c(C(F)(F)F)c1
Return: 89

Enquiry: Look up and state reported inhibition at 10 µM for Cc1cc(C(=O)NCc2c(C3CC3)ccc3[nH]ncc23)cs1
Return: 91

Reference source: patent US11230541B2
